System: NCI-H929 complex spheroids, viability % test/control
assayNotes: Anticancer human tumor NCI-H929 cell line growth inhibition [RAS];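 also: compound exposure lasted seven days before viability was read; 100% = DMSO vehicle control viability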
particulars: second compound 0.0316 µM; first compound 0.316 µM; active compounds read low
experimentalEndpoint: viability, T/C (%)

compound="Cc1nc(N2CCC3(CC2)COC(C)C3N)c(CO)nc1Sc1ccnc(N)c1Cl (configuration not stated) + C=CC(=O)N1CCN(c2nc(OCC3CCCN3C)nc3c(F)c(-c4nc(N)cc(C)c4C(F)(F)F)c(Cl)cc23)C(C)C1" unitname=% measured=100
compound="CC(C)NCC(C(=O)N1CCN(c2ncnc3c2C(C)CC3O)CC1)c1ccc(Cl)cc1 (configuration not stated) + C#Cc1c(F)ccc2cc(O)cc(-c3ncc4c(N5CC6CCC(C5)N6)nc(OCC56CCCN5CC(F)C6)nc4c3F)c12" unitname=% measured=111
compound="O=C(c1ccc(F)c(F)c1Nc1ccc(I)cc1F)N1CC(O)([C@@H]2CCCCN2)C1 + C#Cc1c(F)ccc2cc(O)cc(-c3ncc4c(N5CC6CCC(C5)N6)nc(OCC56CCCN5CC(F)C6)nc4c3F)c12" unitname=% measured=113
compound="CCC(CC)c1cc(NC2CCC(N)C2)n2nccc2n1 (configuration not stated) + C#Cc1c(F)ccc2cc(O)cc(-c3ncc4c(N5CC6CCC(C5)N6)nc(OCC56CCCN5CC(F)C6)nc4c3F)c12" unitname=% measured=101
compound="CCC(CC)c1cc(NC2CCC(N)C2)n2nccc2n1 (configuration not stated) + C=CC(=O)N1CCN(c2nc(OCC3CCCN3C)nc3c(F)c(-c4nc(N)cc(C)c4C(F)(F)F)c(Cl)cc23)C(C)C1" unitname=% measured=97.3
compound="C=CC(=O)Nc1cc(Nc2nccc(-c3cn(C)c4ccccc34)n2)c(OC)cc1N(C)CCN(C)C + C#Cc1c(F)ccc2cc(O)cc(-c3ncc4c(N5CC6CCC(C5)N6)nc(OCC56CCCN5CC(F)C6)nc4c3F)c12" unitname=% measured=99.7
compound="Nc1ccn(C2OC(CO)C(O)C2(F)F)c(=O)n1 (configuration not stated) + C#Cc1c(F)ccc2cc(O)cc(-c3ncc4c(N5CC6CCC(C5)N6)nc(OCC56CCCN5CC(F)C6)nc4c3F)c12" unitname=% measured=1.77

###

Test system: NCI-H929 complex spheroids, viability % test/control
assayNotes: Anticancer human tumor NCI-H929 cell line growth inhibition [RAS]; active = viability on the fitted dose curve at most 10% of control; inactive = the rest;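 also: compound exposure lasted seven days before viability was read; 100% = DMSO vehicle control viability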
particulars: second compound 0.0949 µM; first compound 0.316 µM
Possible outcomes: active, inactive

compound="O=C(c1ccc(F)c(F)c1Nc1ccc(I)cc1F)N1CC(O)([C@@H]2CCCCN2)C1 + CCn1c(-c2cccnc2C(C)OC)c2c3cc(ccc31)N1CCOC(CC(NC(=O)C(C(C)C)N(C)C(=O)C3(F)CCN(C(=O)C#CC(C)(C)N(C)C)CC3)C(=O)N3CCCC(N3)C(=O)OCC(C)(C)C2)C1" tgt="NCI-H929 complex spheroids, viability % test/control" answerlabel=inactive
compound="NC1c2ccccc2OC12CCN(c1cnc3c(N4CCCc5ncccc54)n[nH]c3n1)CC2 (stereo not drawn) + CCn1c(-c2cccnc2C(C)OC)c2c3cc(ccc31)N1CCOC(CC(NC(=O)C(C(C)C)N(C)C(=O)C3(F)CCN(C(=O)C#CC(C)(C)N(C)C)CC3)C(=O)N3CCCC(N3)C(=O)OCC(C)(C)C2)C1" tgt="NCI-H929 complex spheroids, viability % test/control" answerlabel=inactive
compound="C=CC(=O)Nc1cc(Nc2nccc(-c3cn(C)c4ccccc34)n2)c(OC)cc1N(C)CCN(C)C + CCn1c(-c2cc(N3CCN(C)CC3)cnc2C(C)OC)c2c3cc(ccc31)-c1csc(n1)CC(NC(=O)C1CC1C)C(=O)N1CCCC(N1)C(=O)OCC(C)(C)C2" tgt="NCI-H929 complex spheroids, viability % test/control" answerlabel=active
compound="O=C(c1ccc(F)c(F)c1Nc1ccc(I)cc1F)N1CC(O)([C@@H]2CCCCN2)C1 + CCn1c(-c2cc(N3CCN(C)CC3)cnc2C(C)OC)c2c3cc(ccc31)-c1csc(n1)CC(NC(=O)C1CC1C)C(=O)N1CCCC(N1)C(=O)OCC(C)(C)C2" tgt="NCI-H929 complex spheroids, viability % test/control" answerlabel=active
compound="CC(C)NCC(C(=O)N1CCN(c2ncnc3c2C(C)CC3O)CC1)c1ccc(Cl)cc1 (stereo not drawn) + CCn1c(-c2cccnc2C(C)OC)c2c3cc(ccc31)N1CCOC(CC(NC(=O)C(C(C)C)N(C)C(=O)C3(F)CCN(C(=O)C#CC(C)(C)N(C)C)CC3)C(=O)N3CCCC(N3)C(=O)OCC(C)(C)C2)C1" tgt="NCI-H929 complex spheroids, viability % test/control" answerlabel=inactive
compound="CC(=O)OC12COC1CC(O)C1(C)C(=O)C(O)C3=C(C)C(OC(=O)C(O)C(NC(=O)OC(C)(C)C)c4ccccc4)CC(O)(C(OC(=O)c4ccccc4)C21)C3(C)C (stereo not drawn) + CCn1c(-c2cc(N3CCN(C)CC3)cnc2C(C)OC)c2c3cc(ccc31)-c1csc(n1)CC(NC(=O)C1CC1C)C(=O)N1CCCC(N1)C(=O)OCC(C)(C)C2" tgt="NCI-H929 complex spheroids, viability % test/control" answerlabel=active
compound="CCC(CC)c1cc(NC2CCC(N)C2)n2nccc2n1 (stereo not drawn) + CCn1c(-c2cc(N3CCN(C)CC3)cnc2C(C)OC)c2c3cc(ccc31)-c1csc(n1)CC(NC(=O)C1CC1C)C(=O)N1CCCC(N1)C(=O)OCC(C)(C)C2" tgt="NCI-H929 complex spheroids, viability % test/control" answerlabel=active
compound="Nc1ccn(C2OC(CO)C(O)C2(F)F)c(=O)n1 (stereo not drawn) + CCn1c(-c2cc(N3CCN(C)CC3)cnc2C(C)OC)c2c3cc(ccc31)-c1csc(n1)CC(NC(=O)C1CC1C)C(=O)N1CCCC(N1)C(=O)OCC(C)(C)C2" tgt="NCI-H929 complex spheroids, viability % test/control" answerlabel=active
